pIC50: −log10 of the molar value.
Read-out record for Matrix metalloproteinase-9 (Homo sapiens, UniProt P14780): pIC50
readout.name: pIC50

CC(C)C[C@H](N[C@H](CCN1C(=O)c2cc3ccccc3cc2C1=O)C(=O)O)C(=O)N1CCN(C)CC1 ... 7.15

1: CC(C)C[C@H](N[C@H](CCN1C(=O)c2cc3ccccc3cc2C1=O)C(=O)O)C(=O)NCc1nnn(C)n1
2: CNC(=O)[C@H](Cc1ccccc1)NC(=O)[C@H](CC(C)C)N[C@H](CCN1C(=O)c2cc3ccccc3c(OC)c2C1=O)C(=O)O
3: CC(C)C[C@H](N[C@H](CCN1C(=O)c2cc3ccccc3cc2C1=O)C(=O)O)C(=O)N1CCc2ccccc2C1
Lookup: Please order the records by their reported pIC50, lowest number first. Would you mind listing the labels in the order requested?
Found: 3, 1, 2

Data provenance: ChEMBL document CHEMBL1127698
